Target: T1, human CD3e/g antigen (ACRO, catalog number CDG-H52W5) (human, UniProt P07766 23-126; P09693 23-116)
T1 construct: Bought reagent used as the Biacore analyte; also called hCD3e/g
Assay: SPR (Biacore 8K), antibody captured via anti-human Fc
Listed below: kon values for each entry.
Please reply with the bare figure in M⁻¹ s⁻¹ and do not write the unit itself.

hAb008-20 (antibody, V domains shown, Humanized; constant regions not specified) VH: QVQLVQSGAEVKKPGASVKVSCKASGYTFTDYTVNWVRQAPGQRLEWIGYINPFNSYTKYNQKFKDRVTITADTSASTAYMELSSLRSEDTAVYYCANSVSTYWGQGTTVTVSS VL: DVVMTQSPLSLPVTLGQPASISCKSSQSLLDSDGKTYLNWFQQRPGQSPRRLIYLVSKLNSGVPDRFSGSGSGTDFTLKISRVEAEDVGVYYCWQGTHFPRTFGGGTKLEIK
105000

Now take the following binder into account.
Enquiry: Need kon, item hAb008-31 (antibody, V domains shown, Humanized; constant regions not specified) VH: QVQLVQSGAEVKKPGASVKVSCKASGYTFTDYTVNWVKQAPGQRLEWIGYINPFNSYTKYNQKFKDRATITADTSASTAYMELSSLRSEDTAVYFCANSVSTYWGQGTTVTVSS VL: DVVMTQSPLSLPVTLGQPASISCKSSQSLLDSDGKTYLNWLLQRPGQSPRRLIQLVSKLNSGVPDRFSGSGSGTDFTLKISRVEAEDVGVFYCWQGTHFPRTFGGGTKLEIK
Return: 252000
